molecular target: Beta Secretase enzyme (BACE) (Homo sapiens, UniProt P56817); test: In vitro enzymatic BACE FRET (fluorescence resonance energy transfer) assay; format: biochemical; settings: average IC50, enzyme assay; read-out: BACE 1 FRET assay
Sequence (P56817 46-501, species assumed): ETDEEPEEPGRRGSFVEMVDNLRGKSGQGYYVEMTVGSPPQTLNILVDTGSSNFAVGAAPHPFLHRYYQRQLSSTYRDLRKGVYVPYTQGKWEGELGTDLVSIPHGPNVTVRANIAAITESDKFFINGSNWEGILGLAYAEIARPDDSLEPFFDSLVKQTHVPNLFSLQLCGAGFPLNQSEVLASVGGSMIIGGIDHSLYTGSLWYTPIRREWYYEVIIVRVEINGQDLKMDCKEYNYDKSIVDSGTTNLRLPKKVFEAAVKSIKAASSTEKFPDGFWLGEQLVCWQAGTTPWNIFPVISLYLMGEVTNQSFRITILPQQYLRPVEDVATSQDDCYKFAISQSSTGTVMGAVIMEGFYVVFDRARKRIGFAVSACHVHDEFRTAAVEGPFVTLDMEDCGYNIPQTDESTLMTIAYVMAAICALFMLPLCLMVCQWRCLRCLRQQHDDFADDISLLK
pIC50: −log10 of the molar value.
result type: pIC50

INSERT INTO assay_data (compound, target_desc, result_type, meas_value) VALUES
  ('NC1=N[C@]2(CO1)c1cc(C3=CCOCC3)ccc1Oc1ccc(-c3cnccn3)cc12', 'Beta Secretase enzyme (BACE) (Homo sapiens, UniProt P56817)', 'pIC50', 7.88),
  ('CC1(C)C[C@H](c2cc3c(cn2)Oc2ccc(-c4cncnc4)cc2[C@@]32COC(N)=N2)CCO1', 'Beta Secretase enzyme (BACE) (Homo sapiens, UniProt P56817)', 'pIC50', 8.08),
  ('COc1ccc(-c2cc(F)c3c(c2)[C@]2(COC(N)=N2)c2cc(-c4cccnc4F)ccc2O3)nn1', 'Beta Secretase enzyme (BACE) (Homo sapiens, UniProt P56817)', 'pIC50', 9.15),
  ('NC1=N[C@@]2(CO1)c1cc(-c3cccnc3)ccc1Oc1cnc(N3CC[C@@H](F)C3)cc12', 'Beta Secretase enzyme (BACE) (Homo sapiens, UniProt P56817)', 'pIC50', 8.64),
  ('NC1=N[C@@]2(CO1)c1cc(-c3cccnc3)c(F)cc1Oc1c(F)cc(C3CCOCC3)cc12', 'Beta Secretase enzyme (BACE) (Homo sapiens, UniProt P56817)', 'pIC50', 8.96),
  ('CC(C)(C)COc1ccc2c(c1)[C@@]1(COC(N)=N1)c1cc(C3=CCOC(C)(C)C3)cnc1O2 [Example 507]', 'Beta Secretase enzyme (BACE) (Homo sapiens, UniProt P56817)', 'pIC50', 8.25),
  ('COC(C)(C)COc1cnc2c(c1)[C@@]1(COC(N)=N1)c1cc(-c3cccc(F)c3F)ccc1O2', 'Beta Secretase enzyme (BACE) (Homo sapiens, UniProt P56817)', 'pIC50', 5.72),
  ('NC1=N[C@@]2(CS1)c1cc(-c3cccnc3)ccc1Oc1ncc(N3CCOCC3)cc12', 'Beta Secretase enzyme (BACE) (Homo sapiens, UniProt P56817)', 'pIC50', 8.55),
  ('NC1=N[C@@]2(CO1)c1cc(-c3cccc(Cl)c3)ccc1Oc1ncc(-c3cnccn3)cc12', 'Beta Secretase enzyme (BACE) (Homo sapiens, UniProt P56817)', 'pIC50', 8.74),
  ('NC1=N[C@@]2(CO1)c1cc(-c3cccnc3F)ncc1Oc1c(F)cc(C3=CCOCC3)cc12', 'Beta Secretase enzyme (BACE) (Homo sapiens, UniProt P56817)', 'pIC50', 8.82),
  ('CC(C)(CF)COc1cc(F)c2c(c1)[C@]1(CSC(N)=N1)c1cc(-c3cccnc3F)ccc1O2', 'Beta Secretase enzyme (BACE) (Homo sapiens, UniProt P56817)', 'pIC50', 6.67),
  ('NC1=N[C@@]2(CO1)c1cc(-c3cncc(F)c3)ccc1Oc1cnc(-c3ccnc(F)c3)cc12', 'Beta Secretase enzyme (BACE) (Homo sapiens, UniProt P56817)', 'pIC50', 8.59),
  ('CC1(C#Cc2cc3c(cn2)Oc2ccc(-c4ccccc4)cc2[C@@]32COC(N)=N2)COC1', 'Beta Secretase enzyme (BACE) (Homo sapiens, UniProt P56817)', 'pIC50', 7.76),
  ('CC(C)(C)COc1ccc2c(c1)[C@]1(COC(N)=N1)c1c(ccc(-c3cncnc3)c1F)O2', 'Beta Secretase enzyme (BACE) (Homo sapiens, UniProt P56817)', 'pIC50', 8.89),
  ('CC1(C#Cc2cc3c(nc2F)Oc2ccc(-c4cncc(F)c4)cc2[C@]32COC(N)=N2)COC1', 'Beta Secretase enzyme (BACE) (Homo sapiens, UniProt P56817)', 'pIC50', 7.27),
  ('NC1=N[C@@]2(CO1)c1cc(-c3cc(Cl)cnc3F)ccc1Oc1ncc(C3=CCOCC3)cc12', 'Beta Secretase enzyme (BACE) (Homo sapiens, UniProt P56817)', 'pIC50', 9.05),
  ('COc1cc(F)c2c(c1)[C@]1(CSC(N)=N1)c1cc(Br)ccc1O2', 'Beta Secretase enzyme (BACE) (Homo sapiens, UniProt P56817)', 'pIC50', 6.09),
  ('N#Cc1cncc(-c2ccc3c(c2)[C@@]2(COC(N)=N2)c2cc(C4=CCOCC4)ccc2O3)c1', 'Beta Secretase enzyme (BACE) (Homo sapiens, UniProt P56817)', 'pIC50', 7.99),
  ('COC(C)(C)COc1cnc2c(c1)[C@@]1(COC(N)=N1)c1cc(-c3cccc(C(F)(F)F)c3)ccc1O2', 'Beta Secretase enzyme (BACE) (Homo sapiens, UniProt P56817)', 'pIC50', 6.41),
  ('N#Cc1cccc(-c2ccc3c(c2)[C@@]2(COC(N)=N2)c2cc(C4=CCOCC4)ncc2O3)c1', 'Beta Secretase enzyme (BACE) (Homo sapiens, UniProt P56817)', 'pIC50', 8.96),
  ('NC1=N[C@@]2(CO1)c1cc(-c3cncnc3)ccc1Oc1cnc(N3CCC(F)(F)C3)cc12', 'Beta Secretase enzyme (BACE) (Homo sapiens, UniProt P56817)', 'pIC50', 9.10),
  ('NC1=N[C@]2(CO1)c1cc(-c3cccnc3F)c(F)cc1Oc1c(F)cc(C3CCOCC3)cc12', 'Beta Secretase enzyme (BACE) (Homo sapiens, UniProt P56817)', 'pIC50', 6.75),
  ('CC1(C#Cc2cnc3c(c2)[C@]2(COC(N)=N2)c2cc(-c4cnccc4F)ccc2O3)COC1', 'Beta Secretase enzyme (BACE) (Homo sapiens, UniProt P56817)', 'pIC50', 8.96),
  ('NC1=N[C@]2(CO1)c1ccncc1Oc1ccc(-c3c(F)ccnc3F)cc12', 'Beta Secretase enzyme (BACE) (Homo sapiens, UniProt P56817)', 'pIC50', 7.29),
  ('NC1=N[C@@]2(CS1)c1cc(-c3cccnc3F)ccc1Oc1ncc(-c3cccnc3)cc12', 'Beta Secretase enzyme (BACE) (Homo sapiens, UniProt P56817)', 'pIC50', 9.00),
  ('NC1=N[C@@]2(CO1)c1cc(-c3cccnc3)ccc1Oc1c2cc(C2=CCCOC2)nc1F', 'Beta Secretase enzyme (BACE) (Homo sapiens, UniProt P56817)', 'pIC50', 9.40),
  ('CC#Cc1cncc(-c2ccc3c(c2)[C@@]2(COC(N)=N2)c2cc(C4=CCOCC4)nc(F)c2O3)c1', 'Beta Secretase enzyme (BACE) (Homo sapiens, UniProt P56817)', 'pIC50', 9.52),
  ('CC(C)CSc1cnc2c(c1)[C@]1(COC(N)=N1)c1cc(-c3cccnc3)ccc1O2', 'Beta Secretase enzyme (BACE) (Homo sapiens, UniProt P56817)', 'pIC50', 7.85),
  ('CC(C)(C)/C=C/c1cc2c(cn1)Oc1cc(F)c(-c3cncnc3)cc1[C@@]21COC(N)=N1', 'Beta Secretase enzyme (BACE) (Homo sapiens, UniProt P56817)', 'pIC50', 8.68),
  ('NC1=N[C@@]2(CO1)c1cc(-c3cccnc3F)ccc1Oc1c2cc(Br)nc1F', 'Beta Secretase enzyme (BACE) (Homo sapiens, UniProt P56817)', 'pIC50', 8.11),
  ('Cn1cc(-c2cc3c(cn2)Oc2ccc(-c4cncc(Cl)c4)cc2[C@@]32COC(N)=N2)cn1', 'Beta Secretase enzyme (BACE) (Homo sapiens, UniProt P56817)', 'pIC50', 8.89);

###

biological target: UniProt:P56817; test: In vitro enzymatic BACE FRET (fluorescence resonance energy transfer) assay; format: biochemical; conditions: average IC50, enzyme assay; read-out: BACE 1 FRET assay
Recorded IC50 for the following compounds
result type: IC50 (nM)

INSERT INTO measurements (test_smiles, meas_value) VALUES
  ('Cc1cc(-c2cc3c(c(F)n2)Oc2ccc(-c4cccnc4F)cc2[C@@]32COC(N)=N2)ccn1', 0.8),
  ('Cn1cc(-c2cnc3c(c2)[C@]2(CSC(N)=N2)c2cc(-c4ccc(F)nc4)ccc2O3)cn1', 5.4),
  ('NC1=N[C@@]2(CO1)c1cc(-c3ccncc3F)ccc1Oc1cnc(-c3cncc(F)c3)cc12', 83),
  ('NC1=N[C@@]2(CO1)c1cc(-c3cccnc3F)c(F)cc1Oc1c(F)cc(C3=CCCOC3)cc12', 0.3);

###

molecular target: Beta Secretase enzyme (BACE) (Homo sapiens); assay: In vitro enzymatic BACE FRET (fluorescence resonance energy transfer) assay; format: biochemical; conditions: average IC50, enzyme assay; read-out: BACE 1 FRET assay
result type: IC50 (nM)

INSERT INTO measurements (test_smiles, meas_value) VALUES
  ('CC1(COc2cc3c(cc2F)Oc2ccc(-c4cncc(Cl)c4)cc2[C@@]32COC(N)=N2)COC1', 2.4),
  ('NC1=N[C@@]2(CS1)c1cc(-c3cncc(F)c3)ccc1Oc1ncc(-c3ncccn3)cc12', 4.6),
  ('NC1=N[C@]2(CS1)c1cc(-c3cccnc3F)ccc1Oc1c2cc(C2=CCOCC2)nc1F', 13.5),
  ('NC1=N[C@@]2(CS1)c1cc(-c3cccnc3)ccc1Oc1c(F)cc(N3CCOCC3)cc12', 1.5);
